# Method: Cmax in rat plasma at 5 mg/kg, po
# Type: ADME, organism-based
# Parameters: dose 5 mg/kg, route po
Readout kind: Cmax (nM)
Give just the numeric value; nM need not be written.

Endpoint output: Cmax of COc1ccc2nc3c(nc2c1)O[C@@H]1C[C@H]2C(=O)N[C@]4(C(=O)NS(=O)(=O)C5(C)CC5)C[C@H]4/C=C\CCCCC[C@H](NC(=O)O[C@@H]4CCC[C@H]4CCCCC3)C(=O)N2C1.[K+] . Value?
70

---

# Experimental target: Retinoic acid receptor RXR-alpha (Homo sapiens)
# Sequence (P19793 whole entry): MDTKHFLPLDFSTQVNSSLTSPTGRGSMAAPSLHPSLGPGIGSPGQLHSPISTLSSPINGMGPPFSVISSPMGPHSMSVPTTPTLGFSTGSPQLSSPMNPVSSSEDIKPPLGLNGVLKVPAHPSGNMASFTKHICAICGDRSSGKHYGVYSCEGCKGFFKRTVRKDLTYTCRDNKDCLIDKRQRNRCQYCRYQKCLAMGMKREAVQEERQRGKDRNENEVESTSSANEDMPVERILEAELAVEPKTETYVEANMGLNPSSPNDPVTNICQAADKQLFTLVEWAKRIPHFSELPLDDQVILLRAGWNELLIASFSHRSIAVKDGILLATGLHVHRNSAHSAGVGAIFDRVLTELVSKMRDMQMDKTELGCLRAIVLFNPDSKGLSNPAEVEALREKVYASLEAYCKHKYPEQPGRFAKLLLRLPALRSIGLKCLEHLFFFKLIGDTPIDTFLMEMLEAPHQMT
# Method: Agonist activity at RXRalpha (unknown origin) using fluorescein-D22 as substrate by fluorescence polarization assay
Readout kind: EC50 (nM)
Respond with the bare value in nM.

Worked cases, answers included:
>  <Molecule>
CC1(C)CCC(C)(C)c2cc3c(cc21)CCC1(CCc2cc(C(=O)O)ccc2O1)O3 (stereo in doubt; form 2)

>  <Experimental target>
Retinoic acid receptor RXR-alpha (Homo sapiens)

>  <EC50 / nM>
1200

$$$$
>  <Molecule>
CC1(C)CCC(C)(C)c2cc3c(cc21)CCC1(CCc2cc(C(=O)O)ccc2O1)O3 (stereo in doubt; form 1)

>  <Experimental target>
Retinoic acid receptor RXR-alpha (Homo sapiens)

>  <EC50 / nM>
170

$$$$

Turning now to a further record.
Recorded EC50 of CC1(C)CCC(C)(C)c2cc3c(cc21)CCC1(CCc2cc(C(=O)O)ccc2O1)O3 (racemic) , please.
730

---

# Test system: Influenza A virus
# Method: Antiviral activity against wild-type Influenza A virus A/M2 assessed as viral growth inhibition
# Format: functional, organism-based
The reader will find reported IC50 values listed item by item below.
Express the result in µM but write the number alone.

>  <Record smiles>
NC1CCC2(CCCC2)CC1

>  <Value units>
µM

>  <IC50>
3.3

$$$$

Field: next compound
Quick one: IC50 for NC1CC[Si]2(CCCC2)CC1 ?
7.8

---

# Method: AUC (0 to 4 hrs) in rat at 5 mg/kg, po
# Type: ADME, organism-based
# Design: time < 4 hr, dose 5 mg/kg, route po
# Measurement context: in vivo
Readout kind: AUC(0-t) at 4 h (µM·h)
Could you give me the number in µM·h? Just the number is fine.

I have this molecule here, COc1ccc2nc3c(nc2c1)O[C@@H]1C[C@H]2C(=O)N[C@]4(C(=O)NS(=O)(=O)C5(C)CC5)C[C@H]4/C=C\CCCCC[C@H](NC(=O)O[C@@H]4CCC[C@H]4CCCCC3)C(=O)N2C1 , and I need its recorded AUC(0-t) at 4 h.
0.77

---

# Experimental target: Phosphoglycerate mutase 1 (Homo sapiens)
# Sequence (P18669 whole entry): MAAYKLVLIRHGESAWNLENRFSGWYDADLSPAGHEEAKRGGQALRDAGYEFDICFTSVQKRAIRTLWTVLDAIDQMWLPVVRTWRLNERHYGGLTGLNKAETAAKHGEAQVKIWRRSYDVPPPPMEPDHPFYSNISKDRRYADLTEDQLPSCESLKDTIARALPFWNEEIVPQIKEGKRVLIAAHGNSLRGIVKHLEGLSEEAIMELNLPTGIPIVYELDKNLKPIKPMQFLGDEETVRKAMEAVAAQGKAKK
# Method: Inhibition of PGAM1 in human MDA-MB-231 cells
Readout kind: IC50 (µM)
Kindly answer with a numeric value in µM, unit omitted.

Give Phosphoglycerate mutase 1 (Homo sapiens) IC50 for C#CCCCC(=O)OC(C)(C)C1CCC2(CO2)C(OC(=O)N[C@@H](Cc2c[nH]c3ccccc23)C(=O)OCc2ccccc2)C1 (stereo partly specified)
33

---

# Method: Volume of distribution in rat at 2 mg/kg, iv
# Assay type: ADME, organism-based
# Measurement context: in vivo
Readout kind: Vd (L/kg)
Use L/kg as the unit, but write only the number.

Recorded Vd of COc1ccc2nc3c(nc2c1)O[C@@H]1C[C@H]2C(=O)N[C@]4(C(=O)NS(=O)(=O)C5(C)CC5)C[C@H]4/C=C\CCCCC[C@H](NC(=O)O[C@@H]4CCC[C@H]4CCCCC3)C(=O)N2C1 , please.
4

---

IC50 by entry:
# Method: Inhibition of Plasmodium vivax SHMT
Expressed in nM, but write only the number.

>  <Compound>
Cc1[nH]nc2c1[C@@]1(C(C#N)=C(N)O2)c2cc(N3CCC(CC(=O)O)CC3)cc(F)c2CC1(C)C

>  <Readout kind>
IC50

>  <Reported value>
2510

$$$$
>  <Compound>
Cc1[nH]nc2c1C1(C(C#N)=C(N)O2)c2cc(N3CCC(CC(=O)O)CC3)cc(F)c2CC1(C)C (racemic)

>  <Readout kind>
IC50

>  <Reported value>
61

$$$$

# next compound below
Item Cc1[nH]nc2c1[C@]1(C(C#N)=C(N)O2)c2cc(N3CCC(CC(=O)O)CC3)cc(F)c2CC1(C)C has what recorded IC50?
43
